testSystem: Bcl-2 protein (Recombinant Human Bcl-2 Protein) (Homo sapiens)
Construct: purchased Novus Biologicals NBP2-34889
Sequence (P10415 whole entry): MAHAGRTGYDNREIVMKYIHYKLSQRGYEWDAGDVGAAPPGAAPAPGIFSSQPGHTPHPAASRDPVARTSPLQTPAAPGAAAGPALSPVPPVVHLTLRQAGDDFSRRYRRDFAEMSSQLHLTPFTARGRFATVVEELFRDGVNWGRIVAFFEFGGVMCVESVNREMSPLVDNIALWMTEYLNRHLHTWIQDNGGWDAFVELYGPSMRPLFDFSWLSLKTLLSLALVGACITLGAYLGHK
protocolDetails: AS-MS evaluation of binding of the Example 4 mixture library (1200 compounds/well) to Bcl-2, ASMS ratio (%)
conditionNotes: AS-MS, Example 4 mixture library, Bcl-2, replicate n = 2
Measured ASMS ratio (%) n = 2, listed per entry.
Reply with just the number (in %).

// below: answered molecules
Which measured ASMS ratio (%) n = 2 value corresponds to CCOc1cncc(-c2cc(OC)c(CN3CCN(c4ccc(C(=O)NS(=O)(=O)CCC(F)(F)F)cc4)CC3)c(OC)c2)c1 [Compound B2N060-01] ? 0.0

Which measured ASMS ratio (%) n = 2 value corresponds to CCOc1cncc(-c2ccccc2CCC(=O)N2CCN(c3ccc(C(=O)NS(=O)(=O)CCC(F)(F)F)cc3)CC2)c1 [Compound B2N034-01] ? 1.0

Which measured ASMS ratio (%) n = 2 value corresponds to CCOc1cccc(-c2csc(CN3CCN(c4ccc(C(=O)NS(=O)(=O)C(C)(C)C)nn4)CC3)c2)c1 [Compound B2L093-01] ? 0.0

Which measured ASMS ratio (%) n = 2 value corresponds to CCOc1cccc(-c2ccc(C(C)N3CCN(c4ccc(C(=O)NS(=O)(=O)C(C)(C)C)cc4)CC3)cc2)c1 (stereo not drawn) [Compound B2L097-01] ? 0.0

Which measured ASMS ratio (%) n = 2 value corresponds to CCOc1cncc(-c2ccc(CN3CCN(c4ccc(C(=O)NS(=O)(=O)c5ccc(NCCSc6ccccc6)c(C(F)(F)F)c5)cc4)CC3)c(OC)c2)c1 [Compound B2R054-01] ? −0.8

Next:
Which measured ASMS ratio (%) n = 2 value corresponds to CCOc1cncc(-c2ccc(CN3CCN(c4ccc(C(=O)NS(=O)(=O)c5ccc(NCCSc6ccccc6)c(C(F)(F)F)c5)nn4)CC3)cc2F)c1 [Compound B2R078-01] ? 11.7

Which measured ASMS ratio (%) n = 2 value corresponds to CCOc1cccc(-c2ccc(CN3CCN(c4ccc(C(=O)NS(=O)(=O)CCC(F)(F)F)nn4)CC3)cc2C)c1 [Compound B2N073-01] ? 0.0

Which measured ASMS ratio (%) n = 2 value corresponds to CCOc1cccc(-c2cc(CN3CCN(c4ccc(C(=O)NS(=O)(=O)c5ccc(NCCSc6ccccc6)c(C(F)(F)F)c5)cc4)CC3)cc(C(F)(F)F)c2)c1 [Compound B2R061-01] ? −6.0

Which measured ASMS ratio (%) n = 2 value corresponds to CCOc1cncc(-c2ccc(C(C)N3CCN(c4ccc(C(=O)NS(=O)(=O)C(C)(C)C)cc4)CC3)cc2)c1 (stereo not drawn) [Compound B2L098-01] ? −5.0

Which measured ASMS ratio (%) n = 2 value corresponds to CCOc1cccc(-c2ccc(CN3CCN(c4ccc(C(=O)NS(=O)(=O)c5ccc(NCCSc6ccccc6)c(C(F)(F)F)c5)nn4)CC3)c(CC)c2)c1 [Compound B2R075-01] ? 0.0

Which measured ASMS ratio (%) n = 2 value corresponds to CCOc1cccc(-c2ccc(CN3CCN(c4ccc(C(=O)NS(=O)(=O)CCC(F)(F)F)nn4)CC3)c(OC)c2)c1 [Compound B2N079-01] ? 0.0

Which measured ASMS ratio (%) n = 2 value corresponds to CCOc1cccc(-c2ccc(CN3CCN(c4ccc(C(=O)NS(=O)(=O)CCC(F)(F)F)nn4)CC3)c3ccccc23)c1 [Compound B2N091-01] ? 0.0

Which measured ASMS ratio (%) n = 2 value corresponds to CCOc1cccc(-c2cc(CN3CCN(c4ccc(C(=O)NS(=O)(=O)CCC(F)(F)F)cc4)CC3)cc(OC(C)C)c2)c1 [Compound B2N057-01] ? −1.8

Which measured ASMS ratio (%) n = 2 value corresponds to CCOc1cccc(-c2ccccc2CCC(=O)N2CCN(c3ccc(C(=O)NS(=O)(=O)c4ccc(NCCSc5ccccc5)c(C(F)(F)F)c4)cc3)CC2)c1 [Compound B2R033-01] ? −6.6

Which measured ASMS ratio (%) n = 2 value corresponds to CCOc1cccc(-c2cc(CN3CCN(c4ccc(C(=O)NS(=O)(=O)C(C)(C)C)nn4)CC3)cc(OCC)c2)c1 [Compound B2L081-01] ? 0.0

Which measured ASMS ratio (%) n = 2 value corresponds to CCOc1cccc(-c2ccc(CN3CCN(c4ccc(C(=O)NS(=O)(=O)CCC(F)(F)F)cc4)CC3)cc2C)c1 [Compound B2N047-01] ? 0.0

Which measured ASMS ratio (%) n = 2 value corresponds to CCOc1cncc(C#Cc2ccccc2CN2CCN(c3ccc(C(=O)NS(=O)(=O)C(C)(C)C)nn3)CC2)c1 [Compound B2L096-01] ? 0.0

Which measured ASMS ratio (%) n = 2 value corresponds to CCOc1cncc(-c2cc(C(=O)N3CCN(c4ccc(C(=O)NS(=O)(=O)CCC(F)(F)F)nn4)CC3)cc(C(C)(C)C)c2)c1 [Compound B2N016-01] ? 0.0

Which measured ASMS ratio (%) n = 2 value corresponds to CCOc1cncc(-c2ccc(C(=O)N3CCN(c4ccc(C(=O)NS(=O)(=O)CCC(F)(F)F)nn4)CC3)cc2C)c1 [Compound B2N004-01] ? −2.0

Which measured ASMS ratio (%) n = 2 value corresponds to CCOc1cccc(-c2ccc(C(=O)N3CCN(c4ccc(C(=O)NS(=O)(=O)c5ccc(NCCSc6ccccc6)c(C(F)(F)F)c5)nn4)CC3)c3ccccc23)c1 [Compound B2R013-01] ? 7.7

Which measured ASMS ratio (%) n = 2 value corresponds to CCOc1cncc(-c2csc(CN3CCN(c4ccc(C(=O)NS(=O)(=O)CCC(F)(F)F)cc4)CC3)c2)c1 [Compound B2N068-01] ? 0.5
